Measured pIC50 values are reported for all entries that follow.
Molecular target: T1, human IL-2Rα subunit (human, UniProt P01589 22-213, limits assumed)
T1 construct: also called CD25
T1 sequence (looked up): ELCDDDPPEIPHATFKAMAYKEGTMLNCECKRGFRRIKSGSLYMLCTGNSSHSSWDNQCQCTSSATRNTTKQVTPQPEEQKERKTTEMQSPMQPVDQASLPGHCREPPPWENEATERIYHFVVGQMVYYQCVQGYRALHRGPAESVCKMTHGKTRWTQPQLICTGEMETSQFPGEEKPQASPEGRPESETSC
pIC50: −log10 of the molar value.

>  <binder>
YVMCSAFGCKSI [SEQ ID NO 23]

>  <pIC50>
> 4.00

$$$$
>  <binder>
ATCMLRLLGDGWGCVF [SEQ ID NO 181]

>  <pIC50>
> 4.00

$$$$
>  <binder>
RVCCSMVGCRSCNL [SEQ ID NO 264]

>  <pIC50>
> 4.00

$$$$
